Each entry below lists one item and its recorded abundance fitness value.
B1: Kinesin-like protein KIF16B, residues 1213 to 1273; numbered along this chain, Q96L93 (parent)
chain: ETWTVFRRYSRFREMHKTLKLKYAELAALEFPPKKLFGNKDERVIAERRSHLEKYLRDFFS

Variants of: B1
Assay: abundance fitness (aPCA) (normalised: wild type 0, dead -1); higher = more abundant; growth selection in yeast, the domain comes from the species named
Conditions: Homo sapiens
Lab note: jot the number down without any unit.

- W3N: -0.024
- V5W: 0.086
- W3G: 0.039
- I45K: 0.281

Query A27D yields abundance fitness of -0.388

Summary for this variant, K35V : abundance fitness is -0.34

# variant D41M ; its abundance fitness = 0.231

K35D has a reported abundance fitness of -0.717

Reported abundance fitness for A46C was 0.093

Lab book: abundance fitness of N39Q noted as 0.054

Field abundance fitness (entry K34V ) reads 0.06

Recorded result, S50Y , abundance fitness: -0.66

Record summary for K54F : reported abundance fitness = -0.664

The measured abundance fitness associated with Y55M reads 0.185

abundance fitness for L26Y is -0.306

Form field abundance fitness, entry R11D : -0.231

Notebook: Y9K , abundance fitness read as -0.056

For Y55W the variant record lists abundance fitness as 0.281

Per the record, R13W has abundance fitness of -0.213

# abundance fitness of L21Q = 0.159

For reference, reported abundance fitness for D41A stands at 0.154

Record M15A . Reported abundance fitness: -0.044
